This collection of values is drawn from patent US6030823A.

Recorded D-Met values for a group of compounds are listed next.
test system: D-aminoacylase derived from Sebekia benihana IFO14309; assay: Influences of inhibitors on the activity of the enzyme; format: biochemical; conditions: inhibitor 1 mM
Metric: D-Met (mM)

compound="OC(CS)C(O)CS (stereo not shown)" metric=D-Met quantitative_readout=0.13
compound=[F-].[Na+] metric=D-Met quantitative_readout=1.6
compound="CCN1C(=O)C=CC1=O [N-ethyl-maleimide]" metric=D-Met quantitative_readout=1.7
compound=c1ccc(-c2ccccn2)nc1 metric=D-Met quantitative_readout=1.6

====

tested on: Sebekia benihana IFO14309; assay: Induction of D-aminoacylase, experiment 2 (seed culture, PY liquid medium, 0.10% inducer); type: cell-based; settings: 20 mM N-acetyl-D-methionine, 30° C., 10 min
Recorded log10 Specific activity values for a group of molecules are listed next.
Metric: log10 Specific activity (log10 of the value in U/mg)

molecule="CC(C)C(N)C(=O)O (racemic) [DL-Valine, DL-valine]" quantitative_readout=-1.04
molecule="CC[C@H](C)[C@H](N)C(=O)O (racemic) [DL-Ile, DL-isoleucine]" quantitative_readout=-1.10
molecule="NC(Cc1ccccc1)C(=O)O (racemic) [DL-Phe, DL-phenylalanine]" quantitative_readout=-1.15
molecule="C[C@@H](O)[C@H](N)C(=O)O (racemic) [DL-Thr, DL-threonine]" quantitative_readout=-2.23
molecule="O=C(O)[C@@H]1CCCN1 (racemic) [DL-Pro, proline]" quantitative_readout=-2.54
molecule="NC(Cc1c[nH]cn1)C(=O)O (racemic) [DL-His, DL-histidine]" quantitative_readout=-2.19
molecule="NC(Cc1c[nH]c2ccccc12)C(=O)O (racemic) [DL-Trp, DL-tryptophan]" quantitative_readout=-0.92

====

test system: Sebekia benihana IFO14309; assay: Induction of D-aminoacylase, experiment 2 (seed culture, PY liquid medium, 0.10% inducer); format: cell-based; conditions: 20 mM N-acetyl-D-methionine, 30° C., 10 min
Recorded Activity values for a group of compounds are listed next.
Metric: Activity

compound="O=C(O)[C@@H]1CCCN1 (racemic)" metric=Activity result="0.00867 U/ml of broth"
compound="C[C@@H](O)[C@H](N)C(=O)O (racemic)" metric=Activity result="0.0163 U/ml of broth"
compound="CC(C)C(N)C(=O)O (racemic)" metric=Activity result="0.239 U/ml of broth"
compound="NC(Cc1c[nH]cn1)C(=O)O (racemic)" metric=Activity result="0.0144 U/ml of broth"
compound="CC[C@H](C)[C@H](N)C(=O)O (racemic)" metric=Activity result="0.214 U/ml of broth"
compound="NC(Cc1ccccc1)C(=O)O (racemic)" metric=Activity result="0.190 U/ml of broth"
compound="NC(Cc1c[nH]c2ccccc12)C(=O)O (racemic)" metric=Activity result="0.312 U/ml of broth"

====

tested on: D-aminoacylase derived from Sebekia benihana IFO14309; type: biochemical; conditions: metal salt 1 mM
Recorded Residual activity values for a group of compounds are listed next.
Metric: Residual activity

smiles_entry=[Cl][Ni][Cl] measurement_target="D-aminoacylase derived from Sebekia benihana IFO14309" metric="Residual activity" result=44%
smiles_entry=[Ca+2].[Cl-].[Cl-] measurement_target="D-aminoacylase derived from Sebekia benihana IFO14309" metric="Residual activity" result=108%
smiles_entry=[Cl-].[Cl-].[Co+2] measurement_target="D-aminoacylase derived from Sebekia benihana IFO14309" metric="Residual activity" result=54%
smiles_entry=[Ba+2].[Cl-].[Cl-] measurement_target="D-aminoacylase derived from Sebekia benihana IFO14309" metric="Residual activity" result=100%
smiles_entry=[Cl][Hg][Cl] measurement_target="D-aminoacylase derived from Sebekia benihana IFO14309" metric="Residual activity" result=32%
smiles_entry=[Cl-].[Cl-].[Zn+2] measurement_target="D-aminoacylase derived from Sebekia benihana IFO14309" metric="Residual activity" result=42%
smiles_entry=[Cl-].[Cl-].[Mg+2] measurement_target="D-aminoacylase derived from Sebekia benihana IFO14309" metric="Residual activity" result=108%
smiles_entry=[Cl-].[K+] measurement_target="D-aminoacylase derived from Sebekia benihana IFO14309" metric="Residual activity" result=100%
smiles_entry=[Cl][Cu][Cl] measurement_target="D-aminoacylase derived from Sebekia benihana IFO14309" metric="Residual activity" result=11%
smiles_entry=[Cl][Mn][Cl] measurement_target="D-aminoacylase derived from Sebekia benihana IFO14309" metric="Residual activity" result=108%
smiles_entry=[Cl][Fe][Cl] measurement_target="D-aminoacylase derived from Sebekia benihana IFO14309" metric="Residual activity" result=20%
